Reference source: patent US20110118447A1

Subject of test: binding partner of C5A (XPA23)
Method summary: Biacore K-off
Measure name: fold difference in affinity vs original (fold)
Answer with a number only, understood to be in fold.

(Q) Consider the binder shown here: C5A (XPA23) VH S30I (antibody, V domains shown) VH: EVQLLESGGGLVQPGGSLRLSCAASGFTFIKYFMFWVRQAPGKGLEWVSVISPSGGMTRYADSVKGRFTISRDNSKNTLYLQMNSLRAEDTAVYYCARVGYGGNSDYWGQGTLVTVSS VL: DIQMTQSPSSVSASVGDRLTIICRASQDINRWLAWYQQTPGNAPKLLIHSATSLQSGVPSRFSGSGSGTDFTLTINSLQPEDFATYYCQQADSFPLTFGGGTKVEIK What is its recorded fold difference in affinity vs original?
(A) 0.08

(Q) Consider the binder shown here: C5A (XPA23) VH Y32S (antibody, V domains shown) VH: EVQLLESGGGLVQPGGSLRLSCAASGFTFSKSFMFWVRQAPGKGLEWVSVISPSGGMTRYADSVKGRFTISRDNSKNTLYLQMNSLRAEDTAVYYCARVGYGGNSDYWGQGTLVTVSS VL: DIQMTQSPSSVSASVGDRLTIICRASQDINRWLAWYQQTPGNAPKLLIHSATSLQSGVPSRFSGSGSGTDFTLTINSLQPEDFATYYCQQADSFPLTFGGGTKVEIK What is its recorded fold difference in affinity vs original?
(A) 1.33
